Items are presented alongside their recorded IC50.
- System: HCV replicon
- Test Method Notes: microbe, parasite or virus in culture
- Assay type: cell-based
- Reported Conditions: Hepatitis C virus, 48 h, read-out: Replicon IC5Os μM

| Structure Smiles | System Name | Reading |
| --- | --- | --- |
| CCn1c(-c2ccc(N3CCOC3=O)cc2)c(C#N)c2ccc(OC)cc21 | HCV replicon | 0.5 to 2 µM |
| CCn1c(NC(=O)OCC(C)C)c(C#N)c2ccc(OC)cc21 | HCV replicon | < 0.5 µM |
| CCCOC(=O)Nc1ccc(-c2c(C#N)c3cc(OC)ccc3n2CC)cc1 | HCV replicon | < 0.5 µM |
| CCn1c(C#Cc2cccc(NC(=O)C(C)C)c2)c(C#N)c2ccc(OC)cc21 | HCV replicon | 0.5 to 2 µM |
| CCn1c(-c2ccc(NS(=O)(=O)C(C)C)cc2)c(C#N)c2cc(OC)ccc21 | HCV replicon | < 0.5 µM |
| CCn1c(C#Cc2ccc(NC(=O)COC)cc2)c(C#N)c2ccc(OC)cc21 | HCV replicon | 0.5 to 2 µM |

Bench note: what IC50 did "CCn1c(C#Cc2ccc(NS(=O)(=O)C(C)C)cc2)c(C#N)c2ccc(OC)cc21" show? 0.5 to 2 µM

Requested read-out: IC50. Entry: "CCn1c(-c2ccc(OCCNS(=O)(=O)CC)cc2)c(C#N)c2ccc(OC)cc21" 0.5 to 2 µM

Query (compound): "CCn1c(-c2ccc(C(=O)N3CC3)cc2)c(C#N)c2cc(OC)ccc21" ; field requested: IC50 0.5 to 2 µM

Find the recorded IC50 belonging to "CCn1c(C#Cc2cccc(NC(=O)C3CC3)c2)c(C#N)c2ccc(OC)cc21" and report it. 0.5 to 2 µM

Suppose we examine the compound "CCn1c(C#Cc2ccc(CC#N)cc2)c(C#N)c2ccc(OC)cc21" ; what IC50 value has been reported? 0.5 to 2 µM

Item under review: "C=CCNC(=O)Nc1cccc(-c2c(C#N)c3ccc(OC)cc3n2Cc2ccccc2)c1" . Reported IC50? < 0.5 µM
